The origin of these recorded values is the Human Domainome abundance scans (Beltran et al. 2025).

B1: Tesmin, residues 368 to 403; numbered along this chain, Q9Y4I5 (parent)
chain: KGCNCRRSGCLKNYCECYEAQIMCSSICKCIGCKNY

Variants of: B1
Protocol details: abundance fitness (aPCA) (normalised: wild type 0, dead -1); higher = more abundant; growth selection in yeast, the domain comes from the species named
Condition parameters: Homo sapiens
Rule: abundance fitness of -0.3 or more gives y; anything lower gives n.

>  <Var>
I22T

>  <Qualitative label>
y

$$$$
>  <Var>
K1C

>  <Qualitative label>
n

$$$$
>  <Var>
C10V

>  <Qualitative label>
n

$$$$
>  <Var>
K34L

>  <Qualitative label>
y

$$$$
>  <Var>
A20Q

>  <Qualitative label>
y

$$$$
>  <Var>
C17L

>  <Qualitative label>
y

$$$$
>  <Var>
C33M

>  <Qualitative label>
y

$$$$
>  <Var>
C28W

>  <Qualitative label>
n

$$$$
>  <Var>
K29Q

>  <Qualitative label>
y

$$$$
>  <Var>
E16A

>  <Qualitative label>
y

$$$$
>  <Var>
C28M

>  <Qualitative label>
n

$$$$
>  <Var>
K29R

>  <Qualitative label>
y

$$$$
>  <Var>
S25W

>  <Qualitative label>
n

$$$$
>  <Var>
C33A

>  <Qualitative label>
y

$$$$
>  <Var>
I31T

>  <Qualitative label>
y

$$$$
>  <Var>
G9E

>  <Qualitative label>
y

$$$$
>  <Var>
S8F

>  <Qualitative label>
n

$$$$
>  <Var>
C15D

>  <Qualitative label>
y

$$$$
>  <Var>
R7C

>  <Qualitative label>
n

$$$$
>  <Var>
L11D

>  <Qualitative label>
n

$$$$
>  <Var>
N4R

>  <Qualitative label>
y

$$$$
>  <Var>
S26G

>  <Qualitative label>
y

$$$$
>  <Var>
C24L

>  <Qualitative label>
n

$$$$
>  <Var>
I27Q

>  <Qualitative label>
y

$$$$
>  <Var>
K12P

>  <Qualitative label>
y

$$$$
>  <Var>
N35C

>  <Qualitative label>
n

$$$$
>  <Var>
R6N

>  <Qualitative label>
n

$$$$
>  <Var>
A20M

>  <Qualitative label>
n

$$$$
>  <Var>
I22P

>  <Qualitative label>
y

$$$$
>  <Var>
A20R

>  <Qualitative label>
y

$$$$
>  <Var>
C15L

>  <Qualitative label>
n

$$$$
>  <Var>
S8D

>  <Qualitative label>
y

$$$$
>  <Var>
E16V

>  <Qualitative label>
n

$$$$
>  <Var>
I22L

>  <Qualitative label>
y

$$$$
>  <Var>
K12V

>  <Qualitative label>
y

$$$$
>  <Var>
I31V

>  <Qualitative label>
y

$$$$
>  <Var>
S25F

>  <Qualitative label>
n

$$$$
>  <Var>
Q21V

>  <Qualitative label>
n

$$$$
>  <Var>
C24K

>  <Qualitative label>
y

$$$$
>  <Var>
C3K

>  <Qualitative label>
y

$$$$
>  <Var>
N13L

>  <Qualitative label>
y

$$$$
>  <Var>
K34D

>  <Qualitative label>
y

$$$$
>  <Var>
K12T

>  <Qualitative label>
y

$$$$
>  <Var>
Y18E

>  <Qualitative label>
y

$$$$
>  <Var>
L11T

>  <Qualitative label>
y

$$$$
>  <Var>
C24V

>  <Qualitative label>
n

$$$$
>  <Var>
G32Q

>  <Qualitative label>
n

$$$$
>  <Var>
K29M

>  <Qualitative label>
y

$$$$
>  <Var>
S26V

>  <Qualitative label>
y

$$$$
>  <Var>
A20L

>  <Qualitative label>
y

$$$$
>  <Var>
C28Y

>  <Qualitative label>
n

$$$$
>  <Var>
C24Q

>  <Qualitative label>
y

$$$$
>  <Var>
K29E

>  <Qualitative label>
y

$$$$
>  <Var>
Y18T

>  <Qualitative label>
y

$$$$
>  <Var>
S8C

>  <Qualitative label>
n

$$$$
>  <Var>
S26W

>  <Qualitative label>
n

$$$$
>  <Var>
G2S

>  <Qualitative label>
y

$$$$
>  <Var>
C15I

>  <Qualitative label>
n

$$$$
>  <Var>
I27Y

>  <Qualitative label>
n

$$$$
>  <Var>
G2M

>  <Qualitative label>
y

$$$$
>  <Var>
C15W

>  <Qualitative label>
n

$$$$
>  <Var>
Y14E

>  <Qualitative label>
y

$$$$
>  <Var>
C5E

>  <Qualitative label>
y

$$$$
>  <Var>
K29I

>  <Qualitative label>
n

$$$$
>  <Var>
G2L

>  <Qualitative label>
n

$$$$
>  <Var>
C33V

>  <Qualitative label>
y

$$$$
>  <Var>
N35S

>  <Qualitative label>
y

$$$$
>  <Var>
M23E

>  <Qualitative label>
y

$$$$
>  <Var>
A20C

>  <Qualitative label>
n

$$$$
>  <Var>
K12L

>  <Qualitative label>
n

$$$$
>  <Var>
A20Y

>  <Qualitative label>
n

$$$$
>  <Var>
K12G

>  <Qualitative label>
y

$$$$
>  <Var>
C3Y

>  <Qualitative label>
y

$$$$
>  <Var>
N4V

>  <Qualitative label>
n

$$$$
>  <Var>
C5N

>  <Qualitative label>
n

$$$$
>  <Var>
N35V

>  <Qualitative label>
n

$$$$
>  <Var>
C10D

>  <Qualitative label>
y

$$$$
>  <Var>
S8M

>  <Qualitative label>
n

$$$$
>  <Var>
K34S

>  <Qualitative label>
y

$$$$
>  <Var>
Y18R

>  <Qualitative label>
y

$$$$
>  <Var>
S8W

>  <Qualitative label>
n

$$$$
>  <Var>
Q21L

>  <Qualitative label>
y

$$$$
>  <Var>
Y14D

>  <Qualitative label>
y

$$$$
